Biological target: T1, Cynomolgus TNFR2-His (Sino 90102-C08H) (cynomolgus monkey, UniProt A0A2K5VET2 132-366)
T1 construct: Bought protein; also called cynomolgus monkey TNFR2; recombinant cynomolgus monkey TNFR2 protein; not shown: His tag
T1 sequence: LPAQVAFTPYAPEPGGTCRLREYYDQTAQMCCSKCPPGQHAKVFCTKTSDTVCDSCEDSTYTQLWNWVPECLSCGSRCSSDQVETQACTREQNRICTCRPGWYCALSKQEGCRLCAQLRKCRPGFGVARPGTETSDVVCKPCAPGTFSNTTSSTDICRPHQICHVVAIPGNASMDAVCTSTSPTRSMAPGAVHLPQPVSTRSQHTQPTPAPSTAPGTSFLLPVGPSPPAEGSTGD
Assay: SPR (Biacore T200), antibody captured on Protein A chip
observationType: koff (s⁻¹)

• 219-WT (antibody, V domains shown, Human-murine chimeric wild-type molecule) VH: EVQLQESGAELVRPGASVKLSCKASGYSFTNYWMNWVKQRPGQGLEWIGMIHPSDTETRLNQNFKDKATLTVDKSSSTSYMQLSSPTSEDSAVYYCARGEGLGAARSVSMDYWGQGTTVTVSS VL: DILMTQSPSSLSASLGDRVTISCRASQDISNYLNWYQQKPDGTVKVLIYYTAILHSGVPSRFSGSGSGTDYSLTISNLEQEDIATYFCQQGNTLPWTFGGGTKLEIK = 0.000562
• 224-Hu3 (antibody, V domains shown, Humanized form of #224; also called VH9 + VL8) VH: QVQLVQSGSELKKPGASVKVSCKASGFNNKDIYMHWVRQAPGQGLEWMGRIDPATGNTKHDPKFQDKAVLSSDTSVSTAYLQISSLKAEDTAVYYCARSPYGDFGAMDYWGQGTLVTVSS VL: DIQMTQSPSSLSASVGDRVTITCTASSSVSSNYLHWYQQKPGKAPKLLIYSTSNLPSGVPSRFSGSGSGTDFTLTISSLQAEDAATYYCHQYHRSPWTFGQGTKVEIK = 0.000847
